target: TLR9 (Homo sapiens, UniProt Q9NR96); construct: expressed in transfected cells; host or cells: HEK293; assay: TLR9 screening of (+)-morphinan library, SEAP reporter in HEK293 cells expressing TLR9; format: cell-based; details: HEK293, read-out: % Inhibition (mean), 10 μM; activator ODN2006
Sequence (Q9NR96 26-1032): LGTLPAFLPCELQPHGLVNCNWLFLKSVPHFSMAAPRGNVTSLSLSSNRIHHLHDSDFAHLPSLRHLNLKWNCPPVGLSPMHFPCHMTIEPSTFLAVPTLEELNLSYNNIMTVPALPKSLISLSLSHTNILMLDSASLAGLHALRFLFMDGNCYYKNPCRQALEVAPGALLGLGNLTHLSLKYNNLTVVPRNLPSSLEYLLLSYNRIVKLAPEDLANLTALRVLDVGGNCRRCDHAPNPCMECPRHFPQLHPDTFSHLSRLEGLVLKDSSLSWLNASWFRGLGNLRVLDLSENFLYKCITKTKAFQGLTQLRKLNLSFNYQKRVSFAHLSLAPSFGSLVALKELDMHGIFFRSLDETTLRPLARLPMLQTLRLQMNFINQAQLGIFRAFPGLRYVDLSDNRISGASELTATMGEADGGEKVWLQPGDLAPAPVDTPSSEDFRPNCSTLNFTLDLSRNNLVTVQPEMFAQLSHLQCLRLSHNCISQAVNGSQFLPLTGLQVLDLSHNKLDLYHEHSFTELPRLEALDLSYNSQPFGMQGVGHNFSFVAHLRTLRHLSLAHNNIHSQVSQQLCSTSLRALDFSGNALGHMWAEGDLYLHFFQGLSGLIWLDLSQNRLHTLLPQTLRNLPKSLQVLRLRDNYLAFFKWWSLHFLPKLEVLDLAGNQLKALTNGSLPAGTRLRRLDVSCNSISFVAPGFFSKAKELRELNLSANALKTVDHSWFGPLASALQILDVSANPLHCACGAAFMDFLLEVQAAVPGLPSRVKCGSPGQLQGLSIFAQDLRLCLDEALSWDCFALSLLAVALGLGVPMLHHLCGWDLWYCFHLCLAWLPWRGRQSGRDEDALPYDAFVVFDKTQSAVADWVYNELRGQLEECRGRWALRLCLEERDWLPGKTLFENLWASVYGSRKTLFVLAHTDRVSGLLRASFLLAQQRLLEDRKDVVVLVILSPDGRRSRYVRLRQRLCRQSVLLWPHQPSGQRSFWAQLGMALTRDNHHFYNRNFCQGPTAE
Each entry below lists one item and its recorded inhibition at 10 µM value.
Write the value in % as a bare number.

Look over these answered cases.
molecule="COC(=O)/C=C/c1cc(OC)c(O)c2c1CC1C3CCC(=O)C[C@@]23CCN1CC1CC1 (some centres unmarked)" system="TLR9 (Homo sapiens, UniProt Q9NR96)" reading_unit=% endpoint_value=91
molecule=COc1ccc2c3c1O[C@@H]1C(=O)CC[C@@H]4[C@H](C2)NCC[C@@]314 system="TLR9 (Homo sapiens, UniProt Q9NR96)" reading_unit=% endpoint_value=43

# return recorded inhibition at 10 µM for input CCOC(=O)N1CC[C@@]23CC(=O)CCC2C1Cc1c(Br)cc(OC)c(O)c13 (some centres unmarked)
-39

# return recorded inhibition at 10 µM for input C=CCN1CC[C@@]23c4c5c(-c6ccoc6)cc(OC)c4O[C@@H]2C(=O)CCC3C1C5 (some centres unmarked)
92

# return recorded inhibition at 10 µM for input COC1=CCC2[C@@H]3Cc4ccc(OC)c5c4[C@]2(CCN3)[C@@H]1O5 (some centres unmarked)
60

# return recorded inhibition at 10 µM for input COC(=O)[C@@H](C)NC1CCC2C3Cc4ccc(OC)c5c4[C@]2(CCN3C)C1O5 (some centres unmarked)
48

# return recorded inhibition at 10 µM for input COC1=C[C@@H]2[C@@H]3Cc4ccc(OC)c(O)c4[C@]2(CCN3C)CC1O (some centres unmarked)
91

# return recorded inhibition at 10 µM for input COC(=O)/C=C/c1cc(OC)c2c3c1CC1C4CCC(=O)[C@@H](O2)[C@@]34CCN1CC1CC1 (some centres unmarked)
84
